Test system: root meristem cells of Allium cepa
assayText: In vitro antimitotic activity and cytogenetic analysis, Allium cepa meristem root model
Type: cell-based
details: compounds 1 mg/mL, PC (EMS) 2 × 10^−2 M
Please mark TRUE if the recorded Polar deviations (%) ± SEM is equal to or greater than 9%, and FALSE if it falls below.

# input Quick check: does O=C(NS(=O)(=O)c1nnc(N=Cc2ccc(O)cc2)s1)c1ccccc1 have Polar deviations (%) ± SEM greater than or equal to 9%?
# output FALSE

# input Quick check: does O=C(NS(=O)(=O)c1nnc(N=Cc2ccccc2O)s1)c1ccccc1 have Polar deviations (%) ± SEM greater than or equal to 9%?
# output FALSE

----------
assayText: In vitro cytotoxicity by MTT assay, HEK 293
Type: cell-based, human
details: human, HEK 293 cells, 0.005 μM, read-out: % cytotoxicity (100 − % cell survival) of HEK 293 cell line
Parameter: cytotoxicity at 72 h, 0.005 µM. Scope: all listed entries.
Give just the numeric value; % need not be written.

Look over these answered cases.
• O=C(NS(=O)(=O)c1nnc(N=Cc2ccc(Cl)cc2)s1)c1ccccc1 [Compound 9b] = 33.2
• Nc1ccc(S(=O)(=O)Nc2nnc(S(=O)(=O)NC(=O)c3ccccc3N)s2)cc1 [Compound 7b] = 37.8
• Nc1nnc(S(=O)(=O)NC(=O)c2ccccc2O)s1 [Compound 4d] = 37.3
• CC(=O)Nc1ccc(S(=O)(=O)Nc2nnc(S(=O)(=O)NC(=O)c3ccccc3N)s2)cc1 [Compound 6b] = 35.6

# input Which cytotoxicity at 72 h, 0.005 µM is listed for COc1ccc(C=Nc2nnc(S(=O)(=O)NC(=O)c3ccccc3)s2)cc1 [Compound 9d] ?
# output 30.6

# input Which cytotoxicity at 72 h, 0.005 µM is listed for CC(=O)Nc1ccc(S(=O)(=O)Nc2nnc(S(=O)(=O)NC(=O)c3ccc(Cl)cc3)s2)cc1 [Compound 6g] ?
# output 15.1

# input Which cytotoxicity at 72 h, 0.005 µM is listed for O=C(NS(=O)(=O)c1nnc(N=Cc2ccco2)s1)c1ccccc1 [Compound 9j] ?
# output 31.4

# input Which cytotoxicity at 72 h, 0.005 µM is listed for COc1ccccc1C=Nc1nnc(S(=O)(=O)NC(=O)c2ccccc2)s1 [Compound 9c] ?
# output 36.8

----------
Parameter: cytotoxicity at 72 h, 1.23 µM. Scope: all listed entries.
assayText: In vitro cytotoxicity by MTT assay, HEK 293
Type: cell-based, human
details: human, HEK 293 cells, 1.23 μM, read-out: % cytotoxicity (100 − % cell survival) of HEK 293 cell line
Give just the numeric value; % need not be written.

Look over these answered cases.
• Nc1ccc(S(=O)(=O)Nc2nnc(S(=O)(=O)NC(=O)c3ccccc3O)s2)cc1 = 25.3
• NS(=O)(=O)c1ccc(S(=O)(=O)Nc2cccc3c(Cl)c[nH]c23)cc1 [ISL, indisulam, reference compound] = 52.2

# input Which cytotoxicity at 72 h, 1.23 µM is listed for Nc1ccc(S(=O)(=O)Nc2nnc(S(=O)(=O)NC(=O)c3ccc([N+](=O)[O-])cc3)s2)cc1 ?
# output 35.5

# input Which cytotoxicity at 72 h, 1.23 µM is listed for CN(C)c1ccc(C=Nc2nnc(S(=O)(=O)NC(=O)c3ccccc3)s2)cc1 ?
# output 35.7

# input Which cytotoxicity at 72 h, 1.23 µM is listed for Nc1ccc(C(=O)NS(=O)(=O)c2nnc(N)s2)cc1 ?
# output 40.7

# input Which cytotoxicity at 72 h, 1.23 µM is listed for Nc1nnc(S(=O)(=O)NC(=O)c2ccc(Cl)cc2)s1 ?
# output 45.6

# input Which cytotoxicity at 72 h, 1.23 µM is listed for O=C(NS(=O)(=O)c1nnc(N=Cc2ccccc2O)s1)c1ccccc1 ?
# output 37.1

# input Which cytotoxicity at 72 h, 1.23 µM is listed for CC(=O)Nc1ccc(S(=O)(=O)Nc2nnc(S(=O)(=O)NC(=O)c3ccccc3N)s2)cc1 ?
# output 43.1

# input Which cytotoxicity at 72 h, 1.23 µM is listed for Nc1ccc(S(=O)(=O)Nc2nnc(S(=O)(=O)NC(=O)c3cccc([N+](=O)[O-])c3)s2)cc1 ?
# output 38.7

# input Which cytotoxicity at 72 h, 1.23 µM is listed for O=C(NS(=O)(=O)c1nnc(N=Cc2ccc(O)cc2)s1)c1ccccc1 ?
# output 30.3

Origin of values: paper PMC3973950
